Target: T1, human CD19 on CHO-K1-human CD19 cells (human, UniProt P15391 20-556)
T1 construct: whole, on cells; also called CHO-K1-human CD19-2C8
T1 sequence (looked up): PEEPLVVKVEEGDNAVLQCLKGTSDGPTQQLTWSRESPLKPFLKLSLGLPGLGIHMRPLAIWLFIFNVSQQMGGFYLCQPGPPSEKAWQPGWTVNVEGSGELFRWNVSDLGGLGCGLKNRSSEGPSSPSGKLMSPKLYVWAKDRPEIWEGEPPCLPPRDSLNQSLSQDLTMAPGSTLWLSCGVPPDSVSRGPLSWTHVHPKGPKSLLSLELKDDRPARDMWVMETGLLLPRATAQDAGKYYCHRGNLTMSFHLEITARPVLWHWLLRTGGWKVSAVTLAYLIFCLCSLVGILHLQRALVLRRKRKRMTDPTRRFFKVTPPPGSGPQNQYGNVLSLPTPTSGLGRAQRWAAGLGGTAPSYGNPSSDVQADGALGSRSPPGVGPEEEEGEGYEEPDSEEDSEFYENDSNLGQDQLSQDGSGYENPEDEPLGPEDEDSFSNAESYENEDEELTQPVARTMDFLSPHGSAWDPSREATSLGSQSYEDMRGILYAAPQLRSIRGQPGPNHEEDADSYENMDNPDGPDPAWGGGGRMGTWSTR
Assay: FACS on CHO-K1-human CD19 cells
experimental_readout: EC50 (nM)
Response body: numeric value in nM, unit text excluded.

Illustrative cases are given below, each with its answer.
binder	EC50, nM
F5.7.1 (antibody, human IgG1, V domains shown, human-murine chimeric antibody, human IgG1) VH: QVTLKESGPGILQPSQTLSLTCSFSGFSLTTFGMGVGWIRQPSGKGLEWLTHIWWDDDKYYNPALKSRLTISKDTSKNQVFLRIANVDTADTATYYCARVITTGVPYFDYWGQGTTLTVSS VL: ENVLTQSPAIMSASPGEKVTMTCRASSSVSSSYLYWYQQKSGASPKLWISSTSNLASGVPARFSGSGSGTSYSLTINSVEAEDAATYYCQQYSGYPWTFGGGTKLEIK	1.54
F4.107.12 (antibody, human IgG1, V domains shown, human-murine chimeric antibody, human IgG1) VH: EVQLQQSGPELVKPGASVKMSCKASGYTFTSYVLHWVRQKPGQGLEWIGYFNPYNDGTEYNEKFKGKAILTSDKSSSTAYMELNSLTSEDSAVYYCVGGTYYYGSSYPFAYWGQGTLVTVST VL: DVVMTQISLSLPVSLGDQASISCRSSQSLIHSNGNTYLQWYLQKPGQSPKLLIYKVSNRLSGVPDRFSGSGSGTDFTLKISRVEAEDLGVYFCSQSTHVPYTFGGGTKLEIK	0.77
F3.124.7 (antibody, human IgG1, V domains shown, human-murine chimeric antibody, human IgG1) VH: EVQLQQSGPVLVKPGASVKMSCKASGYTFTDYYMNWVKQRHGKSLEWIGISNPYNGGTSYNQKFKDKATLTVDKSSSTAYMELNSLTSEDSAVYYCAREGGTAQPTSGMDYWGQGTSVTVSS VL: NIMMTQSPSSLAVSAGEKVTMSCKSSQSVLYSSNQKNYLAWYQQKPGQSPKLLIYWASTRESGVPDRFTGSGSGTDFTLTISSVQPEDPAVYYCHQYRSSYTFGGGTKLEIK	1.35
F4.21.2 (antibody, human IgG1, V domains shown, human-murine chimeric antibody, human IgG1) VH: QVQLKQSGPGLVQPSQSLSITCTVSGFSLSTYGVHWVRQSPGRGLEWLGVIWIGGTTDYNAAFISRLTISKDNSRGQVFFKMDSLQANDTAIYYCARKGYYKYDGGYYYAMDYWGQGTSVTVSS VL: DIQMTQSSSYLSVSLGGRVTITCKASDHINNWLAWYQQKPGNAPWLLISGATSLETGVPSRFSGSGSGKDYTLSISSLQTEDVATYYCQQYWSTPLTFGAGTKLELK	1.02
F3.121.4 (antibody, human IgG1, V domains shown, human-murine chimeric antibody, human IgG1) VH: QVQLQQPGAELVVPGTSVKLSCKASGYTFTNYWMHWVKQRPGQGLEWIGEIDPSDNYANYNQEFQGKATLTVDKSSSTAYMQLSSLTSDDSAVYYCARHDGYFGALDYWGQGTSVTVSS VL: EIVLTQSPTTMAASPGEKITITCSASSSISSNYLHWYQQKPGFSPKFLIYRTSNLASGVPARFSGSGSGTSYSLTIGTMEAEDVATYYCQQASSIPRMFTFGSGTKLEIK	0.3

Record summary for F4.145.9 (antibody, human IgG1, V domains shown, human-murine chimeric antibody, human IgG1) VH: EVQLVESGGGLVKPGGSLKLSCAAAGFAFSSYDMSWVRQIPEKRLEWVAYISAGGGNTYFLDTVKGRFTISRDHAKNTLSLQMSSLKSEDTAMYFCVRHGDYYRYFYAMDYWGQGSSVTVSS VL: DIVMTQSHKFMSTSVGDRVSITCKASQDVGTAVAWSQQKPGQSPKLLIYWASTRHTGVPDRFTGSGSGTDFTLTISNVQSEDLADYFCQQFVTYPYTFGGGTKLEIK : reported EC50 = 0.84

Record summary for F3.3.10 (antibody, human IgG1, V domains shown, human-murine chimeric antibody, human IgG1) VH: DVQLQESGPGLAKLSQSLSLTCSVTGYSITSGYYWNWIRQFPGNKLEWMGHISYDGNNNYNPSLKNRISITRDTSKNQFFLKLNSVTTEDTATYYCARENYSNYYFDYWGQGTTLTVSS VL: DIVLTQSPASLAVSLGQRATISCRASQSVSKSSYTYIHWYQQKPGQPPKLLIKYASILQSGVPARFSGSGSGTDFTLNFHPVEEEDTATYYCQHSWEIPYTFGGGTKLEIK : reported EC50 = 1.9

Record summary for F4.152.7 (antibody, human IgG1, V domains shown, human-murine chimeric antibody, human IgG1) VH: QVQLQQPGAELVKPGASVKLSCKASGYTFTSYWMHWVKQRPGQGLEWIGEIDPSDSYTNYNQKFKGKATLTADKSSSTAYMQLSGLTSEDSAVYHCARGGDYDGYYVMDYWGQGTSVTVSS VL: EIVLTQSPTTMAASPGEKITITCSASSSISSNYLHWYQQKPGFSPKLLIYRTSNLASGVPARFSGSGSGTSYSLTIGTMEADDVATYYCQQGSYIPRIFTFGSGTKLEIK : reported EC50 = 0.78
